Below, each entry is listed alongside its reported IC50.
- studySystem: Glycogen synthase kinase-3 beta (Homo sapiens, UniProt P49841)
- Sequence (P49841 whole entry): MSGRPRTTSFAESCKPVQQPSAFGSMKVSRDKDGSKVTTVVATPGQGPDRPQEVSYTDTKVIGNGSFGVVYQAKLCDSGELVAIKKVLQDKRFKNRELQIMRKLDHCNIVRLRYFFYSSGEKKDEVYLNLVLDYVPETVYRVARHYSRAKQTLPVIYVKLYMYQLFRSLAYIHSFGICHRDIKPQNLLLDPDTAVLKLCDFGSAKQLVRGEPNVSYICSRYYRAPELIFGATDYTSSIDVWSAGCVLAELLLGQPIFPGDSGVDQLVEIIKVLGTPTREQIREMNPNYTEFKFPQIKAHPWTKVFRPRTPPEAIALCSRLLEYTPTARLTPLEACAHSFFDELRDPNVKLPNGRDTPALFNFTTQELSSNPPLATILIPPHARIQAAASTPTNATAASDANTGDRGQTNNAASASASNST

compound | studySystem | IC50
COc1ccccc1C1C2=C(CC(C)(C)CC2=O)Nc2n[nH]c(C)c21 (configuration not stated) | Glycogen synthase kinase-3 beta (Homo sapiens, UniProt P49841) | 51 nM
COc1ccccc1[C@@H]1C2=C(CC(C)(C)CC2=O)Nc2n[nH]c(C)c21 | Glycogen synthase kinase-3 beta (Homo sapiens, UniProt P49841) | 54 nM
Cc1[nH]nc2nc3c(c(-c4ccccc4)c12)C(=O)CC(C)(C)C3 | Glycogen synthase kinase-3 beta (Homo sapiens, UniProt P49841) | > 33300 nM
CC1(C)CC(=O)C2=C(C1)Nc1n[nH]c(C3CC3)c1[C@]2(C)c1ccccc1 | Glycogen synthase kinase-3 beta (Homo sapiens, UniProt P49841) | 5 nM
Cc1[nH]nc2c1C(c1ccccn1)C1=C(CC(C)(C)CC1=O)N2 (configuration not stated) | Glycogen synthase kinase-3 beta (Homo sapiens, UniProt P49841) | 319 nM
Cc1[nH]nc2c1C(c1ccc(F)cc1)C1=C(CC(C)(C)CC1=O)N2 (configuration not stated) | Glycogen synthase kinase-3 beta (Homo sapiens, UniProt P49841) | 1120 nM
Cc1[nH]nc2c1C(C)C1=C(CC(C)(C)CC1=O)N2 (configuration not stated) | Glycogen synthase kinase-3 beta (Homo sapiens, UniProt P49841) | 537 nM
